# Tested on: MS2 coat protein
# assay.details: apparent Kd, MS2 coat protein; higher = weaker binding; RNA-MaP array; FMN 200 µM where present
# condition.context: ligand present: flavin mononucleotide; designed as: ON switch for flavin mononucleotide
The entries below come with measured apparent Kd values attached.
Write the value in nM as a bare number.

Past entries and their recorded results:
primary.sequence: ACAUGAGGAUCACCCAUGUUGCGAGUAGAAGGCUAUAAGAAACGGGAUGAAGAAAUCCACGCAAUAGAGGAUAUACGAAUUGGA
assayed.target: MS2 coat protein
scale.unit: nM
apparent Kd: 7.78

primary.sequence: UGGUACUAGGGAGGAUAUGCGAAGAUACAUGAGGAUCACCCAUGUUUAAGAAUGCCGAGAGGCAACUAGAAGGCCCUAGUACCU
assayed.target: MS2 coat protein
scale.unit: nM
apparent Kd: 5.38

For the next question, use this sequence.
Looking for the measured apparent Kd of `GUGGAGUACGUAGGAUAUGUAGGAUAUUCCUACAUGAGGAUCACCCAUGUUUACAUGGAAGAAGGACAGAAGGACGUGCUCCAG` , can you help? 14.3
